# test.target: IL16_1, Q14005
# Sequence (Q14005 210-306): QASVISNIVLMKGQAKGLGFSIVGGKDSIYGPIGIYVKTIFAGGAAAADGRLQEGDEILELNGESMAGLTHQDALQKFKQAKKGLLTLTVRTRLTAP
# method.notes: holdup assay
# Parameters: key: below the threshold = too weak to quantify, mostly under pKd 3.1 to 4
# test.parameters: plain residues with an end cap or a label only (N-terminal biotin on a linker: ado-ado)
measured.endpoint: pKd

PKRSFIESNV [TANC1, Q9C0D5] :: 4.83
TPPAAKKSRI [BAZ1A, Q9NRL2] :: below the threshold
KSGKQTMLVV [TRIM29, Q14134;Q14134-2] :: below the threshold
DDENIRTSDV [PLEKHA2, Q9HB19] :: 3.83
KKMPSIESDV [GRIN2A, Q12879] :: 4.05

# pKd lookup, item QHKTQLQTLI [BPIFA2, Q96DR5]
below the threshold

# iterate: SKSNFGSEPL [KIF17, Q9P2E2]
below the threshold

Try the binder SKENVQETQI [LRRC4B, Q9NT99]
below the threshold

Subsequent entry: RRRESYSTTV [EVI5, O60447]
below the threshold

Try this binder next: YRLAQESGLV [ABCC6, O95255]
below the threshold

Data origin, for the record: paper PMC9482650
